// values below are reported log10 Binding affinity (RU)
molecular target: acetylcholine receptor; experiment: SPR, receptor immobilized, peptide 10 uM
// units: RU (pre-log); metric: Binding affinity (RU); scale: log10

# lookup: log10 Binding affinity (RU) of KHAKKK [6mer-2-810] 1.26

# lookup: log10 Binding affinity (RU) of KRLQTK [6mer-1-163] 2.17

# lookup: log10 Binding affinity (RU) of RHDHKR [6mer-2-869] 1.26

# lookup: log10 Binding affinity (RU) of KDENRK [6mer-2-892] 1.43

# lookup: log10 Binding affinity (RU) of RHTFKK [6mer-2-862] 1.46

# lookup: log10 Binding affinity (RU) of KEPMRR [6mer-2-856] 1.15

# lookup: log10 Binding affinity (RU) of RYCHKR [6mer-2-847] 1.34

# lookup: log10 Binding affinity (RU) of REEDK [5mer-1093] 1.51

Where do these numbers come from? They come from patent US20250011363A1.
